Data provenance is patent US9949475B2.

Test: Solubility of agrochemical active ingredient in oil comprising ionic liquid
Format: physicochemical
Details: Cetiol B oil comprising ionic liquid, 21 °C, oil or lipid, thermodynamic from solid, 21° C.; Oil/IL 60/40 weight ratio; IL N-ethyl-N′-methylimidazolium octanoate; read-out: Solubility of fluxapyroxad with Cetiol ® B as oil
METRIC: solubility (mg/mL)

> print(dat)
                                   molecule  unit.name  result
1  Cn1cc(C(=O)Nc2ccccc2-c2cc(F)c(F)c(F)c2)c(C(F)F)n1      mg/mL    49.5

###

Experiment: Solubility of agrochemical active ingredient in oil comprising ionic liquid
Assay type: physicochemical
Conditions: neat ionic liquid (no oil), 21 °C, organic solvent or mixture, thermodynamic from solid, 21° C.; 100 IL (no oil); IL N-butyl-N′-methylimidazolium acetate; read-out: Solubility of fluxapyroxad with Cetiol ® B as oil
METRIC: solubility (mg/mL)

> print(dat)
                                   molecule  result
1  Cn1cc(C(=O)Nc2ccccc2-c2cc(F)c(F)c(F)c2)c(C(F)F)n1 [fluxapyroxad]    42.4
